Measured kon, listed per entry for reference.
Biological target: T1, canine NGF tagged at the C-terminus with the Flag tag (canine, UniProt A0A8I3PYI3 122-241)
T1 construct: mature; Expressed with baculovirus technology; also called feline NGF (processed form identical)
T1 sequence (A0A8I3PYI3 entry or part of it): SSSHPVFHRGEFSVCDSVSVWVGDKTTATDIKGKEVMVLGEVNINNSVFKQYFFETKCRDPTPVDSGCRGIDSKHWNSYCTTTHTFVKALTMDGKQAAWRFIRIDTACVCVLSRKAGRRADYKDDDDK
Assay: SPR off-rate assay, Fab-SASA on BSA chip
The answer should read as a number with its unit following.

BINDER: AHF17601 (Fab, V domains shown, not shown: small tags and cut ends) VH: DVQLVESGGDLVKPGGSLRLTCVASGLSLTSSSMVWVRQAPGKGLQWVSTIYSNRGTYYTDSVKGRFTISKDNAENTLYLQMNNLKTEDTATYYCAQIYYYDADYLHWYFDEWGQGALVTVSS VL: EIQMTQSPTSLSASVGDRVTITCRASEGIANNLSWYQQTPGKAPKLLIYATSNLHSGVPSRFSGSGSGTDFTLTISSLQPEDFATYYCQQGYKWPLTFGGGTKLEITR
kon: 291000 M⁻¹ s⁻¹
//
BINDER: AHF17595 (Fab, V domains shown, not shown: small tags and cut ends) VH: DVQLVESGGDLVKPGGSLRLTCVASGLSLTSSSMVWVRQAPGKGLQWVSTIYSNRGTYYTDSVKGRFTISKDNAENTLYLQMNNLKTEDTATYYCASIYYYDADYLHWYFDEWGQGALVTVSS VL: EIQMTQSPTSLSASVGDRVTITCRASEGIQNNLSWYQQTPGKAPKLLIYATSNLHSGVPSRFSGSGSGTDFTLTISSLQPEDFATYYCQQGYKWPLTFGGGTKLEITR
kon: 178000 M⁻¹ s⁻¹
//
BINDER: AHF17603 (Fab, V domains shown, not shown: small tags and cut ends) VH: DVQLVESGGDLVKPGGSLRLTCVASGLSLTSSSMVWVRQAPGKGLQWVSTIYSNGGTYYTDSVKGRFTISKDNAENTLYLQMNNLKTEDTATYYCASIYYYDADYLHWYFDEWGQGALVTVSS VL: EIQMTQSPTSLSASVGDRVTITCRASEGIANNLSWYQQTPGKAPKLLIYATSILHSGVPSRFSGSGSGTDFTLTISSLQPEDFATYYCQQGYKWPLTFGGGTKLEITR
kon: 368000 M⁻¹ s⁻¹

// AHF17610 (Fab, V domains shown, not shown: small tags and cut ends) VH: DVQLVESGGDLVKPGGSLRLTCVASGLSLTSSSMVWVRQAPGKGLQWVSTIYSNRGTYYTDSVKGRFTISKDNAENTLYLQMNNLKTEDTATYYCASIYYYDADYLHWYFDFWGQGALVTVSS VL: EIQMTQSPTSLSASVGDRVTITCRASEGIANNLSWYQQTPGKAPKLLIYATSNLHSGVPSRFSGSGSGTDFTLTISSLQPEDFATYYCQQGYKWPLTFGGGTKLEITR : kon value = 182000 M⁻¹ s⁻¹

// AHF17591 (Fab, V domains shown, not shown: small tags and cut ends) VH: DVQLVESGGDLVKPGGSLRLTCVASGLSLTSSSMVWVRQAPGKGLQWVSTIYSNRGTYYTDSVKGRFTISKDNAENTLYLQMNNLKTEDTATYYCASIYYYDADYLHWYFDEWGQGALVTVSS VL: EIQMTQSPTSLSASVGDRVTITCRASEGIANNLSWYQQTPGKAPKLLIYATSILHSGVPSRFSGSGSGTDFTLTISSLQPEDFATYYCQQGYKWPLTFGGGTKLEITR : kon value = 268000 M⁻¹ s⁻¹
